# System: KM12 colon
# TEST_SUMMARY: NCI-60 one-dose screen, 48 h (100 = growth as untreated, 0 = no growth, -100 = all killed)
# CONDITION_DESCRIPTION: 10 µM unless noted
This is part of a sample that, as a whole, favours compounds with a hit. Of some 83,000 tested, about 20% had one in any assay. The source made the active and inactive calls. Rule for the calls: active = growth percent below 10; inactive = the rest.
Below, each entry is listed alongside its reported growth.

[[record]]
molecule = "O=C1NC(=O)/C(=C/c2ccccc2OCc2cc3ccccc3nc2Cl)S1"
endpoint_result = "85.2% (inactive)"


The recorded growth for entry COc1cc2oc(-c3cccc(NC(=O)[C@H](CC(N)=O)NC(=O)OC(C)(C)C)c3)cc(=O)c2c(OC)c1OC equals 87.1% (inactive)

The recorded growth for entry COCOc1ccc2c(=O)c(C)c(C(=O)N[C@@H](Cc3ccccc3)C(O)C(=O)NCCc3ccc(OC)cc3)oc2c1 (some centres not stated) equals 108% (inactive)

The recorded growth for entry COc1cc(C2CC(c3cc(OC)c(OC)c(OC)c3)=NN2c2ccccc2)ccc1OCc1ccc(C)cc1 (configuration not stated) equals 96.9% (inactive)

The recorded growth for entry NS(=O)(=O)c1ccc(-n2cc(-c3cccc(NC(=O)c4cc(Cl)cc(Cl)c4)c3)nn2)cc1 equals 2.24% (active)
